tested on: HOP-62; test: NCI in vitro 60-cell drug screen (SRB assay); type: cell-based; conditions: HOP-62 (Non-small cell lung cancer); 10^-5 molar concentration; 48 hours
Is Growth percent at least 80%? Then t. If not, f.

structure as smiles | label
O=c1c2cc(Cl)ccc2sc2c(N3CCN(c4ccccc4)CC3)nc3ccccc3c12 | t
O=c1c2cc(Cl)ccc2sc2c(N3CCN(Cc4ccccc4)CC3)nc3ccccc3c12 | t
O=C(O)c1c(Sc2ccc(Cl)cc2)c(O)nc2ccccc12 | t
COc1nc2ccccc2c2c(=O)c3cc(Cl)ccc3sc12 | f
O=c1c2cc(Cl)ccc2sc2c(N3CCN(CCO)CC3)nc3ccccc3c12 | f
CN(C)c1nc2ccccc2c2c(=O)c3cc(Cl)ccc3sc12 | f
O=c1c2cc(Cl)ccc2sc2c(O)nc3ccccc3c12 | t
O=c1c2cc(Cl)ccc2sc2c(N3CCOCC3)nc3ccccc3c12 | f
CN1CCN(c2nc3ccccc3c3c(=O)c4cc(Cl)ccc4sc23)CC1 | f
